- System name: human PDL1 expressed on cells (human, UniProt Q9NZQ7 19-290)
- Method summary: cell-based or functional assay
Endpoint label: reporter gene assay IC50 (ng/mL)
State the answer as a number, implicitly in ng/mL.

Determine from records and report reporter gene assay IC50 for PRO1183 (33-03-G02-sc03 scFv) (scFv, also called 33_03_G02 sc03 Full) scFv: DFQLTQSPSSLSASVGDRVTITCQASQSINDYLAWYQQKPGKSPKLLIYKASTLASGVPSRFSGSGSGTDFTLTISSLQPEDFATYYCQQGYIITDIDNVFGTGTKVTVLGGGGGSGGGGSGGGGSGGGGSQSQLQESGPGLVKPSETLSLTCKASGFSFSSGYDMCWVRQPPGKGLEWIACVVAGSVDITYYASWAKGRVTISKDSSKNQVSLKLSSVTAADTAVYFCARKDAYSDAFNLWGQGTLVTVSS
9.98
